The measured values listed here are drawn from PubChem BioAssay AID777.

Molecular target: Cytochrome P450 2C9 (Homo sapiens)
Test: blockers of cytochrome P450 2C9 activity – biochemical, luminescence, ADME assay, primary screen (AID 777)
Details: CYP2C9 Supersomes, luciferin-H conversion, at 5 µM
In all, about 96,000 compounds went through this assay and about 19,000 (20%) were called active.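 The calls were made as follows: active = blocking of liver enzyme CYP2C9 beyond about 50% at 5 µM (limit read from the data); inactive = the rest.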 Not all results are given here.
Labels: 1 for active, 0 for inactive

- compound: "COc1ccc(C2C(C(=O)Nc3ccccc3OC)=C(C)Nc3nnnn32)c(OC)c1 (centres undefined)"
  cat: 0
- compound: "CCOC(=O)c1c(-n2cnnn2)sc(C)c1C"
  cat: 0
- compound: "COc1ccc(CCNC(=O)CN2CCC(n3nnc4cc(F)ccc43)CC2)cc1OC"
  cat: 0
- compound: "NC(=O)C1(N2CCCCC2)CCN(C2CC(=O)N(Cc3ccc(N4CCCC4=O)cc3)C2=O)CC1 (centres undefined)"
  cat: 1
